Source: patent US11628220B2

ASSAY_PROCEDURE: Aqueous solubility in different cyclodextrin solutions (excess compound, shaken 24 hours, HPLC)
Format: physicochemical
DETAILS: aqueous cyclodextrin solution, water, thermodynamic from solid, MBCD 0 mg/ml, room temperature, read-out: Solubility in CD's solution (concentration of compound)
MEASUREMENT_TYPE: solubility at 24 h
Output should be the measured figure followed by the unit it is expressed in.

# count of solved cases: 3
>  <COMPOUND>
Cc1ccccc1COc1ccc(Sc2ccoc2C2NC(=O)NC2=O)cc1 (stereo not shown)

>  <solubility at 24 h>
64 µg/mL

$$$$
>  <COMPOUND>
COc1cccc(COc2ccc(Sc3ccoc3C3NC(=O)NC3=O)cc2)c1 (stereo not shown)

>  <solubility at 24 h>
23 µg/mL

$$$$
>  <COMPOUND>
Cc1cccc(COc2ccc(Sc3ccoc3C3NC(=O)NC3=O)cc2)c1 (stereo not shown)

>  <solubility at 24 h>
26 µg/mL

$$$$

Attention now turns to another entry.
The recorded solubility at 24 h for O=C1NC(=O)C(c2occc2Sc2ccc(OCc3cccc(C(F)(F)F)c3)cc2)N1 (stereo not shown) is 138 µg/mL

---

ASSAY_PROCEDURE: Aqueous solubility in different cyclodextrin solutions (excess compound, shaken 24 hours, HPLC)
Format: physicochemical
DETAILS: aqueous cyclodextrin solution, aqueous with cosolvent or surfactant or cyclodextrin, thermodynamic from solid, ACD 10 mg/ml, room temperature, read-out: Solubility in CD's solution (concentration of compound)
MEASUREMENT_TYPE: solubility at 24 h (µg/mL)
The response must be a number in µg/mL with no trailing unit.

The recorded solubility at 24 h for Cc1cccc(COc2ccc(Sc3ccoc3C3NC(=O)NC3=O)cc2)c1 (stereo not shown) is 30

---

ASSAY_PROCEDURE: Solubility of compound IVO in solutions containing L-Arginine
Assay type: physicochemical
DETAILS: aqueous L-Arginine solution in DI water, aqueous with cosolvent or surfactant or cyclodextrin, thermodynamic from solid, L-Arginine 0.63 % w/w in DI water
MEASUREMENT_TYPE: solubility at 24 h (µg/mL)
The response must be a number in µg/mL with no trailing unit.

The recorded solubility at 24 h for Cc1cccc(COc2ccc(Sc3ccoc3C3NC(=O)NC3=O)cc2)c1 (stereo not shown) is 34.2

---

ASSAY_PROCEDURE: Aqueous solubility in different cyclodextrin solutions (excess compound, shaken 24 hours, HPLC)
Format: physicochemical
DETAILS: aqueous cyclodextrin solution, aqueous with cosolvent or surfactant or cyclodextrin, thermodynamic from solid, HPBCD 150 mg/ml, room temperature, read-out: Solubility in CD's solution (concentration of compound)
MEASUREMENT_TYPE: solubility at 24 h (µg/mL)
The response must be a number in µg/mL with no trailing unit.

The recorded solubility at 24 h for Cc1cccc(COc2ccc(Sc3ccoc3C3NC(=O)NC3=O)cc2)c1 (stereo not shown) is 312

---

ASSAY_PROCEDURE: Aqueous solubility in different cyclodextrin solutions (excess compound, shaken 24 hours, HPLC)
Format: physicochemical
DETAILS: aqueous cyclodextrin solution, aqueous with cosolvent or surfactant or cyclodextrin, thermodynamic from solid, SBEBCD 100 mg/ml, room temperature, read-out: Solubility in CD's solution (concentration of compound)
MEASUREMENT_TYPE: solubility at 24 h (µg/mL)
The response must be a number in µg/mL with no trailing unit.

>  <MOLECULE>
O=C1NC(=O)C(c2occc2Sc2ccc(OCc3cccc(C(F)(F)F)c3)cc2)N1 (stereo not shown)

>  <UNIT_SPEC>
µg/mL

>  <OBS_VALUE>
641

$$$$
>  <MOLECULE>
Cc1cccc(COc2ccc(Sc3ccoc3C3NC(=O)NC3=O)cc2)c1 (stereo not shown)

>  <UNIT_SPEC>
µg/mL

>  <OBS_VALUE>
174

$$$$
>  <MOLECULE>
Cc1ccccc1COc1ccc(Sc2ccoc2C2NC(=O)NC2=O)cc1 (stereo not shown)

>  <UNIT_SPEC>
µg/mL

>  <OBS_VALUE>
805

$$$$

The recorded solubility at 24 h for COc1cccc(COc2ccc(Sc3ccoc3C3NC(=O)NC3=O)cc2)c1 (stereo not shown) is 815
